B1: Azoarcus group I ribozyme (parent)
chain: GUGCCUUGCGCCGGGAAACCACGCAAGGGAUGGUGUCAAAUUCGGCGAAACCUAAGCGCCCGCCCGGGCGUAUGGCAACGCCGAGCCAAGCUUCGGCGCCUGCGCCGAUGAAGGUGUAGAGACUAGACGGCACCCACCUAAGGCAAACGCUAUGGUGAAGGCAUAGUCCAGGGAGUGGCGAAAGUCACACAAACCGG

Variants of: B1
Experiment: reverse-splicing fitness (ratio to wild type); higher = more active; in vitro selection; Mg2+ level not given
Below, each entry is listed with its recorded reverse-splicing fitness.
Number only, please.

For orientation, consider the following solved cases.
{"mutation.annotation": "C82A A111U A120G A145G U176A", "reverse-splicing fitness": 0.0122}
{"mutation.annotation": "C82U A111U A145G C150U C169G", "reverse-splicing fitness": 0.00883}

May I ask what reverse-splicing fitness has been recorded for A111U A145C C150A C169A U176C ?
0.00656

Try A111C A120U A145U C150G C169G next.
0.00663

Moving on to the next variant: C82G A111U A120U A145G C150G C169A
0.00873

Attribution: the RNAGym collection of RNA variant scans (doi:10.1093/molbev/msab373)
